- assayed_system: human GPR119 (Homo sapiens, UniProt Q8TDV5)
- Construct: expressed in transfected cells; host or cells: Flp-In-CHO cells (Invitrogen, Cat. #R758-07), stably transfected with pcDNA5/FRT-human GPR119 plus pOG44
- Sequence (Q8TDV5 1-335): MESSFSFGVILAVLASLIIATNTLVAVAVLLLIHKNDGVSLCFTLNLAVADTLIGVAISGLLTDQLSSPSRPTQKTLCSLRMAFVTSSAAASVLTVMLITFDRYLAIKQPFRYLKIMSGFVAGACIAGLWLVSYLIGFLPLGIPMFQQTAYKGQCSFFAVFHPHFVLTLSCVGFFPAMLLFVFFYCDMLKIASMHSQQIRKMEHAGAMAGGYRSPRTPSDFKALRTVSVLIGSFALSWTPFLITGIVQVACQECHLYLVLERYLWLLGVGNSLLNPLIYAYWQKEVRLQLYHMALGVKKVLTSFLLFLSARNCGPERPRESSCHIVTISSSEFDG
- procedure_details: Cyclic AMP assay in stable cell line (HTRF, Flp-In-CHO-hGPR119 cells)
- Format: cell-based
- condition_details: increase in intracellular cAMP, 30 minutes at 37° C., 1 mM IBMX
measure: EC50 (nM)

CCc1cnc(N2CCC(COc3c(F)cc(-c4ccc(S(=O)(=O)CC5(C)COC5)cc4)cc3F)CC2)nc1 = 0.7
CC1(OC(=O)N2CCC(COc3c(F)cc(-c4cnc(C(=O)N5CCC(O)CC5)nc4)cc3F)CC2)CC1 = 13
CC1(OC(=O)N2CCC(COc3c(F)cc(-c4cnc5[nH]c(=O)oc5c4)cc3F)CC2)CC1 = 263
CCc1cnc(N2CCC(COc3c(F)cc(-c4ccc(-c5nnn(C)n5)cc4)cc3F)CC2)nc1 = 5
CCc1cnc(N2CCC(COc3c(F)cc(-c4cnc(C(N)=O)nc4)cc3F)CC2)nc1 = 9
CCc1cnc(N2CCC(COc3c(F)cc(-c4cnn(CCN(C)C)c4)cc3F)CC2)nc1 = 2070

I = CC1(OC(=O)N2CCC(COc3c(F)cc(-c4ccc(C5(N)CC5)nc4)cc3F)CC2)CC1
II = CCc1cnc(N2CCC(COc3c(F)cc(-c4ccc(Cn5ccnc5)cc4)cc3F)CC2)nc1
Could you check which of I and II has a smaller value for EC50? State the label of the item chosen.
I

I = CCCS(=O)(=O)c1ccc(-c2cc(F)c(OCC3CCN(C(=O)OC4(C)CC4)CC3)c(F)c2)c(C)n1
II = CCc1cnc(N2CCC(COc3c(F)cc(-c4ccc(-c5nn[nH]n5)nc4)cc3F)CC2)nc1
Could you check which of I and II has a smaller value for EC50? State the label of the item chosen.
I
(I: 0.3 nM, II: 79 nM)

I = CCc1cnc(N2CCC(COc3c(F)cc(-c4ccc(S(C)(=O)=O)cn4)cc3F)CC2)nc1
II = CCc1cnc(N2CCC(COc3c(F)cc(-c4ccc(CO)cc4)cc3F)CC2)nc1
Identify the entry with the larger EC50. Options: I and II State the label of the item chosen.
II
